- System tested: CFTR ΔF508 mutant (Homo sapiens, UniProt P13569, DEL508-508)
- Construct: expressed in transfected cells; host or cells: CFBE41o- (adenoviral transduction)
- Sequence (P13569 with tags, fused parts or gaps DEL508-508): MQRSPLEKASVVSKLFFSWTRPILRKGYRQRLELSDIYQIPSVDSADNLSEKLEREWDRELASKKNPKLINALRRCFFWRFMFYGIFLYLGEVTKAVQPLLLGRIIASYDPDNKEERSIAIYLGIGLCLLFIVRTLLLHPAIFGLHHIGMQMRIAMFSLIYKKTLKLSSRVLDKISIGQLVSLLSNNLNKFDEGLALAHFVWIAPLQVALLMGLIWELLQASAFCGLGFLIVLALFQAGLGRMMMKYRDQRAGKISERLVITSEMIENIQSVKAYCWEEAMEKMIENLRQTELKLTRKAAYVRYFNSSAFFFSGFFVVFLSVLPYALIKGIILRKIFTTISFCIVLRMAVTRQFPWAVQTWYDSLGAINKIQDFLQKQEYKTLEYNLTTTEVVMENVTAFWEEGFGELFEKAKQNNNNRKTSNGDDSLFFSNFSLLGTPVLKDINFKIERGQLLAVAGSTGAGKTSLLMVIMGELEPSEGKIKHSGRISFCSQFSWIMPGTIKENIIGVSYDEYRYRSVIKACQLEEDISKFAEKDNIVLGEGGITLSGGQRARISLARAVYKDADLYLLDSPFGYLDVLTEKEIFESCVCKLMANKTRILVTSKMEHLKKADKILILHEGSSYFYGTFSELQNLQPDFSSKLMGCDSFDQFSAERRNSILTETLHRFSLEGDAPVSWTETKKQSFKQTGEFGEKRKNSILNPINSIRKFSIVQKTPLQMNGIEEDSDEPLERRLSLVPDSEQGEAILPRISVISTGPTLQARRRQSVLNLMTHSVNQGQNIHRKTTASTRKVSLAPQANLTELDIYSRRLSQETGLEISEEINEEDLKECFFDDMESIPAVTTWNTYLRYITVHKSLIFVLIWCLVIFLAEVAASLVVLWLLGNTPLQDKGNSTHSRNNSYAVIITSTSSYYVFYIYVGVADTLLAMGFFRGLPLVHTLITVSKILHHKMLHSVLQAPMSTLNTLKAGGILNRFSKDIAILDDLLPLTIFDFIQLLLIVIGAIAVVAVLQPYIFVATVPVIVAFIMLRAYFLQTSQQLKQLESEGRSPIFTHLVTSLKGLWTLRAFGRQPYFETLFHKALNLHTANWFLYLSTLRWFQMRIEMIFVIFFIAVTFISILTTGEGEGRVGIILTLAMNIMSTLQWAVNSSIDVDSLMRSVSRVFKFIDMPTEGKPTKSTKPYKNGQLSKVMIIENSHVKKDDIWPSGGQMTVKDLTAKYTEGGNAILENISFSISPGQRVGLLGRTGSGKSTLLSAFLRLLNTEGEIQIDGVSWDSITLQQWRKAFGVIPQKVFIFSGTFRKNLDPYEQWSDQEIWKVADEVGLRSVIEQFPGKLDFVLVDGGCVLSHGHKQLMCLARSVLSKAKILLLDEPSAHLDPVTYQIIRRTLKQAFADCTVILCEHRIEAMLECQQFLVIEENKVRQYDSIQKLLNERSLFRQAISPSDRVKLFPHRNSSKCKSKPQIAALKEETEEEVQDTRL
- Assay comment: YFP-halide influx assay for the CFTR-ΔF508 mutation (384 well, CFBE41o- cells, FDSS/μCell)
- Format: cell-based
- Condition description: forskolin 10.67 μM, fluorescence after 36 seconds, read-out: EC50 measured by YFP-halide influx assay for the CFTR-ΔF508
Response field label takes Y when EC50 is strictly below 100 nM and N in all other cases.

Compound	Class assignment
CC1(C)Cc2c(sc(NC(=O)[C@H]3C[C@@H]3CO)c2C(N)=O)C(C)(C)O1	N
CC1(C)Cc2c(sc(NC(=O)c3n[nH]cc3C3COCCO3)c2C(N)=O)C(C)(C)O1 (single isomer, unassigned) [Compound 111]	Y
C[C@H](O)C(=O)Nc1sc2c(c1C(N)=O)CC(C)(C)OC2(C)C	Y
COCCOc1cc(C(=O)Nc2sc3c(c2C(N)=O)CC(C)(C)OC3(C)C)n[nH]1	Y
CC1(C)Cc2c(sc(NC(=O)C3CC3F)c2C(N)=O)C(C)(C)O1 (single isomer, unassigned) [Compound 44]	N

Please state whether EC50 is below 100 nM for "CC1(C)Cc2c(sc(NC(=O)c3ccn(CC(F)F)n3)c2C(N)=O)C(C)(C)O1" N

Please state whether EC50 is below 100 nM for "CC1(C)Cc2c(sc(NC(=O)c3cc(C(C)(C)C)[nH]n3)c2C(N)=O)C(C)(C)O1" Y
